Assay: Binding affinity to sigma-2 receptor (unknown origin) by PDSP assay
Set-up: species or system Homo sapiens
PROPERTY LABEL: pKi
// pKi: -log10(molar conc.)

The molecule listed as `c1cnc(N2CCN(CCCc3nc4ccccc4s3)CC2)nc1` has a reported pKi of 6.79

###

Entries with their measured Ki, system UniProt P21918:
// note: answer is a bare numeric in nM

Solved cases below.
                          structure_smiles  measured_result
0        Fc1ccc(CCCCN2CCN(c3ccccn3)CC2)cc1             1450
1    Fc1ccc(CCCCN2CCN(c3ccc(Cl)cc3)CC2)cc1             1760
2        Fc1ccc(CCCCN2CCN(c3ncccn3)CC2)cc1             3810
3        Fc1ccc(SCCCN2CCN(c3ccccn3)CC2)cc1             3220
4  Clc1ccc(N2CCCN(CCCc3cc4ccccc4o3)CC2)cc1             1520

The compound listed as `Cc1ccc(N2CCN(CCCOc3ccc(F)cc3)CC2)nc1` has a reported Ki of 2580
